# Target: HLA-B*15:09
# Measurement Description: IEDB peptide-MHC binding, purified MHC/direct/fluorescence; filed as Kd, often an IC50 or EC50 that approximates it; bounds were set here for any values at or beyond the usual limits of such assays
# Measurement Conditions: source organism: Yersinia enterocolitica subsp. enterocolitica 8081
pKd: −log10 of the molar value.
Assay Endpoint: pKd

>>> result("FHYQDPFPL")
"≥ 9.00"

====

# Target: HLA-A*02:11
# Measurement Description: IEDB peptide-MHC binding, purified MHC/competitive/fluorescence; filed as Kd, often an IC50 or EC50 that approximates it; bounds were set here for any values at or beyond the usual limits of such assays
# Measurement Conditions: source organism: Giardia lamblia ATCC 50803
Assay Endpoint: Kd

>>> result("LLDDGWAGE")
"≥ 20 µM"
